For each of the binders below, state its max.
Biological target: T1, Claudin 18.2 (CLDN18.2), expressed on CHOS-CLDN 18.2 / HEK293-CLDN 18.2 / HCC827-CLDN 18.2 cells (human, UniProt P56856-2 1-261)
T1 construct: whole, on cells; The species is not repeated for the CHOS-CLDN 18.2 cells; also called claudin-18A2
Assay: FACS, CHOS-CLDN18.2 cells
The answer should be a number; do not append a unit.

Problem: Using the record for QP14371435 (antibody, human IgG1, kappa, V domains shown, Humanized from QP190191) VH: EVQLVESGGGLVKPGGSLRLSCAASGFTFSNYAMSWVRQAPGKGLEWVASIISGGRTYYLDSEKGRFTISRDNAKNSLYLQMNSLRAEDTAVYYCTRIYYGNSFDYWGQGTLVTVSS VL: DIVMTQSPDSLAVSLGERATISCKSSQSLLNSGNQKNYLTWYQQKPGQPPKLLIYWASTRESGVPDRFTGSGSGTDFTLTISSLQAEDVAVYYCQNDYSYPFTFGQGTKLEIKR , report its max.
Solution: 197000

Problem: Dear colleague, I am looking for the recorded max of the following binder: QP14371433 (antibody, human IgG1, kappa, V domains shown, Humanized from QP190191; also called QP14331437) VH: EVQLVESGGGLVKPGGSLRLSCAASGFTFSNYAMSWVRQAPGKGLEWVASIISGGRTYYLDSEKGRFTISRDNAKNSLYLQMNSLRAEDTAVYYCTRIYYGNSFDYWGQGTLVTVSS VL: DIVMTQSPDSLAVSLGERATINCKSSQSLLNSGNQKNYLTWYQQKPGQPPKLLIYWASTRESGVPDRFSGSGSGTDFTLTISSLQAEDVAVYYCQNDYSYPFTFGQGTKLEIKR
Solution: 174000

Problem: Which value of max has been reported for QP190191 (antibody, human IgG1, V domains shown, Chimeric; also called 36A2; mouse-derived chimeric antibody QP190191) VH: EVKLVESGGGLVKPGGSLKLSCAASGFTFSNYAMSWVRQTPEKRLEWVASIISGGRTYYLDSEKGRFTISRDNARNNLYLQMSSLRSEDTAMYYCTRIYYGNSFDYWGQGTTLTVSS VL: DIVMTQSPSSQTVTAGEKVTMSCKSSQSLLNSGNQKNYLTWYQQKPGQPPKLLIYWASTRESGVPDRFTGSGSGTDFTLTISNMQAEDLAVYYCQNDYSYPFTFGSGTKLEIK in the records?
Solution: 148000

Problem: GET /values?readout=max&item= QP14361435 (antibody, human IgG1, kappa, V domains shown, Humanized from QP190191) VH: EVQLVESGGGLVKPGGSLRLSCAASGFTFSNYAMSWVRQAPGKGLEWVSSIISGGRTYYLDSEKGRFTISRDNAKNSLYLQMNSLRAEDTAVYYCTRIYYGNSFDYWGQGTLVTVSS VL: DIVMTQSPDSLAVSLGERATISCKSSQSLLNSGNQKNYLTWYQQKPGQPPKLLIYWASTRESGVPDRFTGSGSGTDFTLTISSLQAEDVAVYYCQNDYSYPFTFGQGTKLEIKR
Solution: 182000
